testSystem: T1, CRBN, Q96SW2;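 note: pooled lentiviral library of zinc finger degron-EGFP fusions in mCherry-positive Jurkat cells, FACS-sorted after compound exposure, with degron abundance counted by next-generation sequencing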
T1 chain: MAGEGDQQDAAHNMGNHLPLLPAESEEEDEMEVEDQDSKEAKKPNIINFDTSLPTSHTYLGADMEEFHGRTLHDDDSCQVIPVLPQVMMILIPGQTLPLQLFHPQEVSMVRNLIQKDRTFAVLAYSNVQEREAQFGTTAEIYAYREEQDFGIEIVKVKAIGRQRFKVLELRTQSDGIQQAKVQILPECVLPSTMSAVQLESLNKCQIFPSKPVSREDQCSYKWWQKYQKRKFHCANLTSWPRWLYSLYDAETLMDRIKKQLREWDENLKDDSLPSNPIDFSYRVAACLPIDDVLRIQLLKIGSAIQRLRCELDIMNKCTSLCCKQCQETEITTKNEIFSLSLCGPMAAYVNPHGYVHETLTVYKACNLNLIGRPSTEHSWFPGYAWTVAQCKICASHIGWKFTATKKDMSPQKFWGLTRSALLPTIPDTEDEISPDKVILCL
assayRemarks: log2 fold change of degron read counts, EGFP-low vs EGFP+ sorted cells (limma voom), compound-induced degradation; higher = more compound-induced degradation of the degron-EGFP fusion; degrons are variants of IKZF1/3 zinc finger 2; compound dose not given here
conditionDescription: Jurkat; 18 h; compound: compound 22 (5-morpholino-thalidomide)
Whole data set: some 8,300 sequences, median “log2 fold change of degron read counts, EGFP-low vs EGFP+ sorted cells (limma voom), compound-induced degradation” near -1.1, cut for the highest 2% near 3.2. The sample holds the highest values, similar sequences and a random draw of the others, so the mix is not that of the screen.
Listed sequences paired with reported log2 fold change of degron read counts
Form field (numeric): enter value without unit.

Examples with their reported log2 fold change of degron read counts follow.
entrysequence="FRCEICGRNFTQKGNLLRHIKL [46F_47R_49E_50I_52G_53R_54N_55F_67L_, Q9UKT9]" propertyname="log2 fold change of degron read counts" recordedvalue=-2.64
entrysequence="FDCNVCGAKFTQKGNLLRHIKL [46F_47D_49N_50V_52G_53A_54K_55F_67L_, Q9UKT9]" propertyname="log2 fold change of degron read counts" recordedvalue=-2.41
entrysequence="FVCDVCGAGFTQKGNLLRHIKL [46F_47V_49D_50V_52G_53A_54G_55F_67L_, Q9UKT9]" propertyname="log2 fold change of degron read counts" recordedvalue=1.19
entrysequence="LICNQCGFDCTQKGNLLRHIKL [46L_47I_49N_50Q_52G_53F_54D_55C_67L_, Q9UKT9]" propertyname="log2 fold change of degron read counts" recordedvalue=-3.2
entrysequence="FICPICGRHFTQKGNLLRHIKL [46F_47I_49P_50I_52G_53R_54H_55F_67L_, Q9UKT9]" propertyname="log2 fold change of degron read counts" recordedvalue=-0.572

Value of log2 fold change of degron read counts reported for the sequence FQCEICGAQFTQKGNLLRHIKL [46F_47Q_49E_50I_52G_53A_54Q_55F_67L_, Q9UKT9] is 2.24

Value of log2 fold change of degron read counts reported for the sequence FMCNVCGADFTQKGNLLRHIKL [46F_47M_49N_50V_52G_53A_54D_55F_67L_, Q9UKT9] is -2.8
